Tested on: U2OS
measurement-notes: Multiplex assay against U2OS
Type: toxicity, cell-based
cond: human, 24 h, 10 µM, compound concentration 10 uM, replicate 2
recorded-endpoint: Population Tubulin-Different-Phenotype (%)
Unit % implied. Number only.

Identify measured Population Tubulin-Different-Phenotype (%) corresponding to Nc1nc(CC(=O)Nc2ccc(CCNC[C@H](O)c3ccccc3)cc2)cs1
4

State, in one line, measured Population Tubulin-Different-Phenotype (%) of O=C(O)CCC/C=C\CC1C(O)CC(O)C1/C=C/C(O)COc1cccc(Cl)c1 (stereo not given)
4

Determine its reported Population Tubulin-Different-Phenotype (%): COc1cc2nc(N3CCN(C(=O)c4ccco4)CC3)nc(N)c2cc1OC.Cl [PRAZOSIN HYDROCHLORIDE]
4

Give me measured Population Tubulin-Different-Phenotype (%), please, for this compound: C[C@@H]1CC(=O)Nc2cccc(-c3ccc4c(c3)c(-c3cnn(C)c3)nn4C)c2N1
4

Give me measured Population Tubulin-Different-Phenotype (%), please, for this compound: Cl.Cl.OCCOCCN1CCN(C(c2ccccc2)c2ccc(Cl)cc2)CC1 (stereo not given) [HYDROXYZINE HYDROCHLORIDE]
9
